Values were extracted from PubChem BioAssay (NCI).

# System: HOP-62 NSCLC
# TEST PROTOCOL: NCI tumour cell line growth inhibition, 48 h
Task for the reader: assign each of the following compounds its reported TGI.

Examples with their reported TGI follow.
1) Cc1cc(N(CCC#N)CCC#N)ccc1/C=C1N=C(/C=C\c2ccccc2)N(c2ccc(C(=O)O)cc2)C\1=O    > 100 µM
2) CC1(C)O[C@@H](CCl)C[C@@H](C#N)O1    > 100 µM
3) COc1ccc(N=C2C(=O)Nc3ccc(Br)cc32)cc1    88.4 µM

Now look at this one.
With HOP-62 NSCLC as the test system, provide measured TGI for this compound: CCOC1OC(C)(C=C(C#N)C#N)CCC1C (centres undefined)
> 100 µM
